Hi there, I'd appreciate the recorded OD450 for every entry that follows.
Target: T1, human CD22-ECD-His protein (human, UniProt P20273 20-687)
T1 construct: Made in house in HEK293E; also called hCD22-ECD-His; recombinant human CD22-ECD His protein; not shown: His tag
T1 sequence: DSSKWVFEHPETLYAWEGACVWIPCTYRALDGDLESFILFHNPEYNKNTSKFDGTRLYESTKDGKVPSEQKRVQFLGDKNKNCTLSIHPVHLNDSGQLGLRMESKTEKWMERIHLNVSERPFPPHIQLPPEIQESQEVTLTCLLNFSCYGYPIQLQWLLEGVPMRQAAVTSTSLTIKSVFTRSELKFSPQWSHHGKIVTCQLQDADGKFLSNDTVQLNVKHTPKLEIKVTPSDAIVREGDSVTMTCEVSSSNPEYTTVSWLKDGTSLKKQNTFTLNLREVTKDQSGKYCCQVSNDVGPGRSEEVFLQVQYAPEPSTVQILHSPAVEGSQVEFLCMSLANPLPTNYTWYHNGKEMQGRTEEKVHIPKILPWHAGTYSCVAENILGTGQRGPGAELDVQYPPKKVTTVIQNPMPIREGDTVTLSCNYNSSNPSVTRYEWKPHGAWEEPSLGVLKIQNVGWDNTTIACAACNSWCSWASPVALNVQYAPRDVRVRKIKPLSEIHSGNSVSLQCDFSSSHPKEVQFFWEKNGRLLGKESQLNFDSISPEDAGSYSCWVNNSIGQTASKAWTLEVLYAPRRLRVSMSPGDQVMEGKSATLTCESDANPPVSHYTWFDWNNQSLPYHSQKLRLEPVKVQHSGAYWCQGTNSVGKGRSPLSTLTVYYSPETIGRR
Assay: ELISA, Ab 0.01 nM
State the answer as a number, implicitly in OD450.

Please give measured OD450 of the following entry: HA22-hIgG1 (antibody, V domains shown) VH: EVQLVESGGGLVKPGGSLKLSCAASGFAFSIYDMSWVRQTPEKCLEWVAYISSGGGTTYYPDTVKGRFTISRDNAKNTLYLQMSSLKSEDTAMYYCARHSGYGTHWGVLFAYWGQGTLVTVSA VL: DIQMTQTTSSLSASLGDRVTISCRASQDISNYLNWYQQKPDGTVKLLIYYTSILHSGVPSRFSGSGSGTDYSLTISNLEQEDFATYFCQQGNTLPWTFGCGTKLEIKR
2.12

Please give measured OD450 of the following entry: F1.280.1 (antibody, human IgG1, kappa, V domains shown, Human-murine chimeric IgG1, kappa) VH: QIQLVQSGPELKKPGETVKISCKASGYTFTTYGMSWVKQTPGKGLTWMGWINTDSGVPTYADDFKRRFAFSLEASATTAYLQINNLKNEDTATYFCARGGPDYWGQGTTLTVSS VL: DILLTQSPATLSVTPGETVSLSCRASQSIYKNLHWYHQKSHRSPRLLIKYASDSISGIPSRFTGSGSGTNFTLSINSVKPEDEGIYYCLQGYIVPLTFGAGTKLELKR
1.92

Please give measured OD450 of the following entry: F1.60.9 (antibody, human IgG1, kappa, V domains shown, Human-murine chimeric IgG1, kappa) VH: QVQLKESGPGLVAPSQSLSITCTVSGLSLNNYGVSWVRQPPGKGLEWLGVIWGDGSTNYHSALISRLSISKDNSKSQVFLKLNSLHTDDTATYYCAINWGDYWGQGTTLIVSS VL: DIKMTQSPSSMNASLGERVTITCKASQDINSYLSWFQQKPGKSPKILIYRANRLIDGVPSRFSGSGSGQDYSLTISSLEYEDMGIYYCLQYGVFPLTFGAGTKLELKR
1.75
